Taken from patent US8785488B2.

Experimental system: h-TGR5 (Homo sapiens)
Construct: expressed in transfected cells
Test protocol: TGR5 cAMP Assay using Cisbio cAMP Dynamic2 htrf kit (hTGR5CRE-luc HEK 293 cells)
Format: cell-based
Experimental setup: h-TGR5 cAMP EC50, Table 1; read-out: cAMP (EC50)
pEC50: −log10 of the molar value.
# Lookup of reported pEC50 keyed by entry

Consider the worked cases shown below.
COc1cc(-n2c(C(C)(C)c3ccc4onc(N)c4c3)cnc2SCc2c(F)cc(C(=O)NC(CCCNC(=N)N)C(=O)O)cc2Cl)ccc1F (stereo not shown)    > 7.00
Cc1cc(-n2c(C(C)(C)c3ccc(Cl)c(Cl)c3)cnc2SCc2c(F)cc(C(=O)O)cc2F)ccc1F    > 7.00
COc1cc(C(C)(C)c2c(C)nc(SCc3c(F)cccc3Cl)n2-c2ccc(F)cc2)ccc1Cl    6.00 to 7.00

Asked: Quick one: pEC50 for CC(C)(c1ccc(Cl)c(Cl)c1)c1cnc(CNC2CCN(S(C)(=O)=O)CC2)n1-c1ccc(F)cc1 ?
Given back: 5.00 to 6.00

----------
Experimental system: human TGR5 (h-TGR5) (Homo sapiens, UniProt Q8TDU6)
Construct: expressed in transfected cells
Test protocol: TGR5/CRE-Luciferiase Assay (HEK 293 hTGR5/CRE-Luc cells)
Type: cell-based
Experimental setup: h-TGR5 CRE-Luc EC50, Table 1; read-out: CRE-Luc (EC50)
Attribute measured: EC50

Asked: Quick one: EC50 for CC(C)(c1ccc(Cl)c(Cl)c1)c1cnc(S(=O)(=O)NCc2ccc(C(F)(F)F)cc2F)n1-c1ccc(F)cc1 ?
Given back: 100 to 1000 nM

Asked: Quick one: EC50 for COc1ccc(C(C)(C)c2c(Cl)nc(SCc3c(F)cccc3Cl)n2-c2ccc(F)cc2)cc1OC ?
Given back: < 100 nM

Asked: Quick one: EC50 for COc1cc(-n2c(C(C)(C)c3ccc(F)c(C#N)c3)cnc2SCc2ccc(S(=O)(=O)NC(=O)NN3CCCC3)cc2Cl)ccc1F ?
Given back: 100 to 1000 nM

Asked: Quick one: EC50 for COc1cc(C(C)(C)c2cnc(SCc3c(F)cc(-c4noc(=O)[nH]4)cc3F)n2-c2ccc(F)cc2)ccc1Cl ?
Given back: < 100 nM

Asked: Quick one: EC50 for CC(C)(c1ccc(Cl)c(Cl)c1)c1cnc(SCc2c(F)cccc2Cl)n1-c1ccc(F)c(Cl)c1 ?
Given back: < 100 nM

----------
Experimental system: h-TGR5 (Homo sapiens)
Construct: expressed in transfected cells
Sequence (Q8TDU6 1-330): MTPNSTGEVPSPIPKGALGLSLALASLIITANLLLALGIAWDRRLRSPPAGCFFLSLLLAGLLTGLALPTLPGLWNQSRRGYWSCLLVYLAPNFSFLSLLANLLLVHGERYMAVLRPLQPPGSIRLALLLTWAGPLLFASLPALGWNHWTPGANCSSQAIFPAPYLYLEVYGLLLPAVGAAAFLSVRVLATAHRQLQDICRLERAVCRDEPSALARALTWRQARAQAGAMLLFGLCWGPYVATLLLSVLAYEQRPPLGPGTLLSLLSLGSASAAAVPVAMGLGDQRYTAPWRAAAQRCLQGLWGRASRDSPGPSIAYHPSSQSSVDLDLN
Test protocol: TGR5 cAMP Assay using Cisbio cAMP Dynamic2 htrf kit (hTGR5CRE-luc HEK 293 cells)
Format: cell-based
Experimental setup: h-TGR5 cAMP EC50, Table 1; read-out: cAMP (EC50)
pEC50: −log10 of the molar value.
Attribute measured: pEC50

Consider the worked cases shown below.
CCN(CC)CCS(=O)(=O)N1CCC(CSc2ncc(C(C)(C)c3ccc(Cl)c(Cl)c3)n2-c2ccc(F)cc2)CC1    6.00 to 7.00
CC(C)(c1ccc(C#N)c(Cl)c1)c1cnc(SCc2ccc(F)cc2Cl)n1-c1ccc(F)cc1    6.00 to 7.00

Asked: Give recorded pEC50 with h-TGR5 (Homo sapiens) for the following compound: COc1cc(C(C)(C)c2cnc(SCc3ccc(S(=O)(=O)NC(=O)NN4CCCC4)cc3Cl)n2-c2ccc(F)cc2)ccc1Cl
Given back: 6.00 to 7.00

Asked: Give recorded pEC50 with h-TGR5 (Homo sapiens) for the following compound: COc1cc(C(C)(C)c2cnc(SCc3c(F)cc(OCCNC(=N)NC(=N)N)cc3F)n2-c2ccc(F)cc2)ccc1Cl
Given back: > 7.00

Asked: Give recorded pEC50 with h-TGR5 (Homo sapiens) for the following compound: CC(C)(c1ccc(Cl)c(Cl)c1)c1cnc(COC2CCN(S(C)(=O)=O)CC2)n1-c1ccc(F)cc1
Given back: 6.00 to 7.00

Asked: Give recorded pEC50 with h-TGR5 (Homo sapiens) for the following compound: CC(C)NC(=O)NS(=O)(=O)c1cc(CSc2ncc(C(C)(C)c3ccc(Cl)c(Cl)c3)n2-c2ccc(F)cc2)ccc1Cl
Given back: 6.00 to 7.00

Asked: Give recorded pEC50 with h-TGR5 (Homo sapiens) for the following compound: CC(C)(c1ccc(Cl)c(Cl)c1)c1cnc(SCc2ccc(S(N)(=O)=O)cc2F)n1-c1ccc(F)cc1
Given back: 6.00 to 7.00

Asked: Give recorded pEC50 with h-TGR5 (Homo sapiens) for the following compound: COc1cc(C(C)(C)c2cnc(SCc3ccc(Cl)c(-c4nnn[nH]4)c3)n2-c2ccc(F)cc2)ccc1Cl
Given back: 6.00 to 7.00

Asked: Give recorded pEC50 with h-TGR5 (Homo sapiens) for the following compound: COc1cc(C(C)(C)c2cnc(SCc3ccc(F)c(-c4nnn[nH]4)c3)n2-c2ccc(F)cc2)ccc1Cl
Given back: > 7.00
